Items are presented alongside their recorded IC50.
Test system: MDA-MB-231
Assay: Antiproliferative activity against human MDA-MB-231 cells
Assay type: functional, cell-based
Conditions: Homo sapiens, MDA-MB-231

>  <mol>
C[C@H]1[C@H](OCCOc2cccc(/C=C/S(=O)(=O)Nc3ccc(OC(F)(F)F)cc3)c2)O[C@@H]2O[C@@]3(C)CC[C@H]4[C@H](C)CC[C@@H]1[C@@]24OO3

>  <IC50, µM>
0.05

$$$$
>  <mol>
C[C@H]1[C@H](OCCNC(=O)c2ccc(COc3ccc(/C=C/S(=O)(=O)Nc4c(Cl)cccc4Cl)cc3)cc2)O[C@@H]2O[C@@]3(C)CC[C@H]4[C@H](C)CC[C@@H]1[C@@]24OO3

>  <IC50, µM>
0.09

$$$$
>  <mol>
Cc1ccc(F)c(NS(=O)(=O)/C=C/c2ccc(OCc3ccc(C(=O)NCCO[C@@H]4O[C@@H]5O[C@@]6(C)CC[C@H]7[C@H](C)CC[C@@H]([C@H]4C)[C@@]57OO6)cc3)cc2)c1

>  <IC50, µM>
0.09

$$$$
>  <mol>
C[C@H]1[C@H](OCCNC(=O)c2ccc(COc3ccc(/C=C/S(=O)(=O)Nc4cccc(Cl)c4)cc3)cc2)O[C@@H]2O[C@@]3(C)CC[C@H]4[C@H](C)CC[C@@H]1[C@@]24OO3

>  <IC50, µM>
0.09

$$$$
>  <mol>
C[C@H]1[C@@H](OCc2cn(-c3ccc(O)cc3)nn2)O[C@@H]2O[C@@]3(C)CC[C@H]4[C@H](C)CC[C@@H]1[C@@]24OO3

>  <IC50, µM>
4.06

$$$$
